B1: 3'-5' exoribonuclease 1, residues 65 to 114; numbered along this chain, Q8IV48 (parent)
chain: VYKEIAITNGCINRMSKEELRAKLSEFKLETRGVKDVLKKRLKNYYKKQK

Variants of: B1
Method notes: abundance fitness (aPCA) (normalised: wild type 0, dead -1); higher = more abundant; growth selection in yeast, the domain comes from the species named
Particulars: Homo sapiens
Recorded abundance fitness split into classes low end: < -0.5; middle: ≥ -0.5 and < -0.2; high end: ≥ -0.2

# example entries with known answers
Variant spec: R21H
Class: low end

Variant spec: S16W
Class: low end

Variant spec: V1S
Class: high end

(Q) Lab log: I7C — assign abundance fitness category
(A) high end

(Q) Would you mind sorting A22H into the appropriate category?
(A) high end

(Q) Category of K28G :
(A) high end

(Q) Field: class (abundance fitness) — entry: F27L
(A) high end
